target: trypsin (Bos taurus, UniProt P00760 P00760:24-246); assay: FP; low salt: 5 mM KCl, 25 mM Hepes pH 7.4; +/-0.3e-6; settings: tags: Sigma Aldrich, from bovine pancreas; label: fluorescein on 5'-terminal dT; intramolecular antiparallel G4
Sequence (P00760 24-246, one chain of several): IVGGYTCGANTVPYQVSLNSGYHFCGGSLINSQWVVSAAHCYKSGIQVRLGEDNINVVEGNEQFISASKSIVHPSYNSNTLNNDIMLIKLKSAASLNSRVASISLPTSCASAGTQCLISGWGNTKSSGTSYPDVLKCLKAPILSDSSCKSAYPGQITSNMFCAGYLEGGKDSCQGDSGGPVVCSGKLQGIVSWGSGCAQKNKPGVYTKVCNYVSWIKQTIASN
Measure Name: Kd (nM)
// units = nM; emit number, no label

Query (binder): TTGGTTGGTGTGGTTGGT (structured_DNA, 5'-benzamidine arm via C10 spacer, 3'-iodophenylthiourea arm via C6 spacer) [AC 1 (ODN 1, Formula 3)] ; field requested: Kd
2800
